B1: CPEB3 Ribozyme (parent)
chain: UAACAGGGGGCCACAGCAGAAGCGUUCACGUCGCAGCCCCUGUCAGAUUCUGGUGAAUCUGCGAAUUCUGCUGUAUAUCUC

- Variants of: B1
- procedure_summary: self-cleavage, relative activity (ratio to wild type); higher = more cleavage; in vitro, sequencing
Listed variants paired with reported self-cleavage

{"sequence_variant": "G16U U67C", "self-cleavage": 0.09}
{"sequence_variant": "G10C A21G", "self-cleavage": 0.18}
{"sequence_variant": "A13U A35G", "self-cleavage": 1.3}
{"sequence_variant": "G8A U72G", "self-cleavage": 0.12}
{"sequence_variant": "C39G U72C", "self-cleavage": 0.3}
{"sequence_variant": "G63U G70A", "self-cleavage": 0.62}
{"sequence_variant": "C11G U67C", "self-cleavage": 0.16}
{"sequence_variant": "G8A U54A", "self-cleavage": 0.08}
{"sequence_variant": "A47U", "self-cleavage": 0.62}
{"sequence_variant": "C29A U49G", "self-cleavage": 0.22}
{"sequence_variant": "G8U", "self-cleavage": 0.23}
{"sequence_variant": "A13G A45U", "self-cleavage": 0.4}
{"sequence_variant": "A5G C29U", "self-cleavage": 0.26}
{"sequence_variant": "A5G G30U", "self-cleavage": 0.11}
{"sequence_variant": "U43A U66C", "self-cleavage": 0.53}
{"sequence_variant": "U25C A56G", "self-cleavage": 0.25}
{"sequence_variant": "A77G U80G", "self-cleavage": 1.21}
{"sequence_variant": "G10A U74C", "self-cleavage": 0.25}
{"sequence_variant": "A5U G8C", "self-cleavage": 0.1}
